Each entry below carries its reported IL-6 mRNA expression, % UTC.
Tested on: IL-6 mRNA
assay: IL-6 mRNA in LPS-activated primary murine macrophages
Type: cell-based, mouse
assayConditions: 75 nM, +IFN, average of 3 treatments
In the oligonucleotide strings, read from the 5' end, every base follows the letter of its sugar. An asterisk marks phosphorothioate; unmarked linkages are phosphodiester. Other units and linkages are bracketed, terminal groups are in braces. A string of capitals states the bases alone. e = 2'-O-(2-methoxyethyl) (MOE); [5mC] = 5-methylcytosine
Numbers only here, please. The scale is % UTC.

// below: answered substances
1) 342683 (antisense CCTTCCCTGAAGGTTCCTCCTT; scrambled control, further chemistry not given here) [compound 342683] :: 115
2) 289606 (antisense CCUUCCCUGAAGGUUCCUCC; all 2'-MOE, all C 5-methyl, all phosphorothioate, T or U not given here) [compound 289606] :: 78

Query substance follows.
The substance identified as 327921 (antisense e[5mC]*eT*eT*e[5mC]*e[5mC]*eA*eG*eT*e[5mC]*eG*eG*eG*eG*eA*eT*eG*eT*eT*eT*eA*e[5mC]*eA) [compound 327921] registered its IL-6 mRNA expression, % UTC at 122

* * *

Each entry below carries its reported HSL.
Tested on: HSL
assay: HSL mRNA expression in adipocytes (real-time PCR)
Assay type: cell-based, human
assayConditions: Table 20; adipocyte differentiation assay as in Example 13
In the oligonucleotide strings, read from the 5' end, every base follows the letter of its sugar. An asterisk marks phosphorothioate; unmarked linkages are phosphodiester. Other units and linkages are bracketed, terminal groups are in braces. A string of capitals states the bases alone. e = 2'-O-(2-methoxyethyl) (MOE); [5mC] = 5-methylcytosine; d = 2'-deoxy (DNA)
Please respond with just the number, no unit label.

// below: answered substances
1) 327901 (antisense eT*eG*eA*eG*e[5mC]*eT*eA*e[5mC]*eA*eG*eT*eG*e[5mC]*eT*eT*e[5mC]*eA*eT*e[5mC]*eT*e[5mC]*eA) [compound 327901] :: 0.33
2) 328382 (e[5mC]*eA*eG*eA*e[5mC]*dT*d[5mC]*d[5mC]*d[5mC]*dA*dA*d[5mC]*dT*dG*dA*e[5mC]*e[5mC]*eA*eG*eA) [compound 328382] :: 0.75
3) 338664 (antisense e[5mC]*eA*eG*eA*e[5mC]*eT*e[5mC]*e[5mC]*e[5mC]*eA*eA*e[5mC]*eT*eG*eA*e[5mC]*e[5mC]*eA*eG*eA) [compound 338664] :: 0.76

Query substance follows.
The substance identified as 340927 (antisense eT*eG*eA*eG*e[5mC]*dT*dA*d[5mC]*dA*dG*dT*dG*d[5mC]*dT*dT*e[5mC]*eA*eT*e[5mC]*eT*e[5mC]*eA) [compound 340927] registered its HSL at 0.73

* * *

Tested on: T47D cells
assay: Caspase-3 activity assay (apoptosis) in T47D cells
assayConditions: T47D cells, 200 nM oligomeric compound, 48 hours; experiment of Table 12
In the oligonucleotide strings, read from the 5' end, every base follows the letter of its sugar. An asterisk marks phosphorothioate; unmarked linkages are phosphodiester. Other units and linkages are bracketed, terminal groups are in braces. A string of capitals states the bases alone. e = 2'-O-(2-methoxyethyl) (MOE); [5mC] = 5-methylcytosine; d = 2'-deoxy (DNA)
parameter: Fold Increase over UTC (caspase-3 activity, apoptosis) (fold)
Numbers only here, please. The scale is fold.

// below: answered substances
1) NNNNNNNNNNNNNNNNNNNN [ISIS 29848, reference compound] :: 3.5
2) 328412 (antisense eT*eT*eT*eA*e[5mC]*dT*d[5mC]*dA*dT*dA*d[5mC]*d[5mC]*dT*d[5mC]*dG*e[5mC]*eA*eA*e[5mC]*e[5mC]) [compound 328412] :: 1.2

Query substance follows.
The substance identified as 328690 (eG*e[5mC]*e[5mC]*eT*e[5mC]*d[5mC]*dT*dT*d[5mC]*dA*dT*dA*dT*dA*dT*eT*e[5mC]*eT*e[5mC]*eA; antisense) [compound 328690] registered its Fold Increase over UTC (caspase-3 activity, apoptosis) at 0.8

* * *

Test system: mir-21 miRNA
assay: pGL3-mir-21 sensor luciferase assay in HeLa cells
Assay type: cell-based, human
assayConditions: Table 50, pGL3-mir-21 sensor-expressing HeLa cells, 16.7 nM, normalized to pRL-CMV
In the oligonucleotide strings, read from the 5' end, every base follows the letter of its sugar. An asterisk marks phosphorothioate; unmarked linkages are phosphodiester. Other units and linkages are bracketed, terminal groups are in braces. A string of capitals states the bases alone. e = 2'-O-(2-methoxyethyl) (MOE); [5mC] = 5-methylcytosine; d = 2'-deoxy (DNA)
Each entry below carries its reported luciferase expression % UTC.
Note: state the figure and append the unit.

// below: answered substances
1) 327917 (antisense eT*e[5mC]*eA*eA*e[5mC]*eA*eT*e[5mC]*eA*eG*eT*e[5mC]*eT*eG*eA*eT*eA*eA*eG*e[5mC]*eT*eA) [compound 327917] :: 2470 % UTC
2) 342683 (antisense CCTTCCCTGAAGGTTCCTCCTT; scrambled control, further chemistry not given here) [compound 342683] :: 104 % UTC
3) 358768 (eA*eG*eG*eT*eG*eG*eT*eA*e[5mC]*eA*eG*e[5mC]*e[5mC]*eA*eT*eG*eG*eA*eG*eA) [compound 358768] :: 146 % UTC

Query substance follows.
Entry 345382 (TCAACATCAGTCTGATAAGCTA; sugars from the 5' end e5 d10 e7, all phosphorothioate, methylation of C not given here) [compound 345382] : luciferase expression % UTC on mir-21 miRNA = 117 % UTC

* * *

Each entry below carries its reported GLUT4 mRNA.
Tested on: Glut4
assay: Glut4 mRNA expression in adipocytes (real-time PCR)
Assay type: cell-based, human
assayConditions: differentiating adipocytes transfected with oligomeric compound; Table 75
In the oligonucleotide strings, read from the 5' end, every base follows the letter of its sugar. An asterisk marks phosphorothioate; unmarked linkages are phosphodiester. Other units and linkages are bracketed, terminal groups are in braces. A string of capitals states the bases alone. e = 2'-O-(2-methoxyethyl) (MOE); [5mC] = 5-methylcytosine

1. 328104 (antisense eT*eA*eT*eG*eA*eT*eA*eG*e[5mC]*eT*eT*e[5mC]*e[5mC]*e[5mC]*e[5mC]*eA*eT*eG*eT*eA*eA) [compound 328104] :: 83 percentage of untreated control (UTC)
2. 328101 (antisense eA*eA*eA*e[5mC]*e[5mC]*e[5mC]*e[5mC]*eT*eA*eT*e[5mC]*eA*e[5mC]*eG*eA*eT*eT*eA*eG*e[5mC]*eA) [compound 328101] :: 57 percentage of untreated control (UTC)
3. 328139 (eT*eA*e[5mC]*eT*eT*eT*eT*e[5mC]*eA*eT*eT*e[5mC]*e[5mC]*e[5mC]*e[5mC]*eT*e[5mC]*eA*e[5mC]*e[5mC]*eA; anti-miR) [compound 328139] :: 85 percentage of untreated control (UTC)
4. 327958 (antisense e[5mC]*e[5mC]*eG*eG*e[5mC]*eT*eG*e[5mC]*eA*eA*e[5mC]*eA*e[5mC]*eA*eA*eG*eA*e[5mC]*eA*e[5mC]*eG*eA) [compound 327958] :: 5 percentage of untreated control (UTC)

The substance identified as 341802 (antisense AGCUGCUUUUGGGAUUCCGUUG; all 2'-MOE, all phosphorothioate, methylation of C and T or U not given here) [compound 341802] registered its GLUT4 mRNA at 85 percentage of untreated control (UTC)

The substance identified as 327896 (antisense eA*e[5mC]*eA*eG*eT*eT*e[5mC]*eT*eT*e[5mC]*eA*eA*e[5mC]*eT*eG*eG*e[5mC]*eA*eG*e[5mC]*eT*eT) [compound 327896] registered its GLUT4 mRNA at 35 percentage of untreated control (UTC)

The substance identified as 341805 (antisense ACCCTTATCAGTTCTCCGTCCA; all 2'-MOE, all phosphorothioate, methylation of C not given here) [compound 341805] registered its GLUT4 mRNA at 74 percentage of untreated control (UTC)

The substance identified as 327920 (antisense eG*eA*eG*eA*e[5mC]*e[5mC]*e[5mC]*eA*eG*eT*eA*eG*e[5mC]*e[5mC]*eA*eG*eA*eT*eG*eT*eA*eG*e[5mC]*eT) [compound 327920] registered its GLUT4 mRNA at 0 percentage of untreated control (UTC)

The substance identified as 327935 (antisense e[5mC]*eT*eA*e[5mC]*e[5mC]*eT*eG*e[5mC]*eA*e[5mC]*eT*eA*eT*eA*eA*eG*e[5mC]*eA*e[5mC]*eT*eT*eT*eA) [compound 327935] registered its GLUT4 mRNA at 47 percentage of untreated control (UTC)
